- Tested on: phrenic nerve diaphragm
- run-description: Nerve conduction blockade in vitro, phrenic nerve diaphragm
- condition: Rattus norvegicus; phrenic nerve diaphragm, in vitro; read-out: concentration at which the twitch response from electrical stimulation is reduced to 50% of control value
Where a name gives a salt, the structure may show the parent alone.
IC50 listing for selected molecules.
Field format: number, assumed µM, no unit text.

O=C(COc1cccc2ccccc12)O[C@@H]1CCCC[C@H]1N1CCCC1 (relative stereo) [Compound #2, monohydrochloride]; 120

Now look at this one.
Exercise: # query: IC50 of entry Cl.O=C(Cc1csc2ccccc12)O[C@@H]1CCCC[C@H]1N1CCOCC1 (racemic) [Compound #6, monohydrochloride]
Key: 30

* * *

- tested-target: cardiac sodium channel (Rattus norvegicus)
- run-description: Electrical stimulation of left ventricle in rats (iT, VFT; cardiac sodium channel blockade)
- Assay type: in vivo
- condition: infusion rate for 25% increase from control; anesthetized rats
Structures can show the parent of a compound that is named as a salt.
Classification field: enter 1 for ED25 VFT (fibrillation threshold current) values not below 4 µmol/kg/min, 0 for values below it.

Reference set, count: 4
O=C(Cc1ccc2ccccc2c1)O[C@@H]1CCCC[C@H]1N1CCOCC1 (relative stereo) [Compound #9, monohydrochloride]; 1
O=C(Cc1cccc2ccccc12)O[C@@H]1CCCC[C@H]1N1CCOCC1 (relative stereo) [Compound #8, monohydrochloride]; 0
O=C(COc1cccc2ccccc12)O[C@@H]1CCCC[C@H]1N1CCCC1 (relative stereo) [Compound #2, monohydrochloride]; 0
O=C(Cc1ccccc1)O[C@@H]1CCCC[C@H]1N1CCOCC1 (relative stereo) [Compound #10, monohydrochloride]; 0

Consider the additional molecule presented here.
Exercise: Hi, just wondering whether Cl.O=C(O[C@@H]1CCCC[C@H]1N1CCOCC1)c1cccc2ccccc12 (racemic) shows ED25 VFT (fibrillation threshold current) of 4 µmol/kg/min or higher.
Key: 1

* * *

- tested-target: cardiac sodium channel (Rattus norvegicus, UniProt P15389)
- Sequence (P15389 whole entry): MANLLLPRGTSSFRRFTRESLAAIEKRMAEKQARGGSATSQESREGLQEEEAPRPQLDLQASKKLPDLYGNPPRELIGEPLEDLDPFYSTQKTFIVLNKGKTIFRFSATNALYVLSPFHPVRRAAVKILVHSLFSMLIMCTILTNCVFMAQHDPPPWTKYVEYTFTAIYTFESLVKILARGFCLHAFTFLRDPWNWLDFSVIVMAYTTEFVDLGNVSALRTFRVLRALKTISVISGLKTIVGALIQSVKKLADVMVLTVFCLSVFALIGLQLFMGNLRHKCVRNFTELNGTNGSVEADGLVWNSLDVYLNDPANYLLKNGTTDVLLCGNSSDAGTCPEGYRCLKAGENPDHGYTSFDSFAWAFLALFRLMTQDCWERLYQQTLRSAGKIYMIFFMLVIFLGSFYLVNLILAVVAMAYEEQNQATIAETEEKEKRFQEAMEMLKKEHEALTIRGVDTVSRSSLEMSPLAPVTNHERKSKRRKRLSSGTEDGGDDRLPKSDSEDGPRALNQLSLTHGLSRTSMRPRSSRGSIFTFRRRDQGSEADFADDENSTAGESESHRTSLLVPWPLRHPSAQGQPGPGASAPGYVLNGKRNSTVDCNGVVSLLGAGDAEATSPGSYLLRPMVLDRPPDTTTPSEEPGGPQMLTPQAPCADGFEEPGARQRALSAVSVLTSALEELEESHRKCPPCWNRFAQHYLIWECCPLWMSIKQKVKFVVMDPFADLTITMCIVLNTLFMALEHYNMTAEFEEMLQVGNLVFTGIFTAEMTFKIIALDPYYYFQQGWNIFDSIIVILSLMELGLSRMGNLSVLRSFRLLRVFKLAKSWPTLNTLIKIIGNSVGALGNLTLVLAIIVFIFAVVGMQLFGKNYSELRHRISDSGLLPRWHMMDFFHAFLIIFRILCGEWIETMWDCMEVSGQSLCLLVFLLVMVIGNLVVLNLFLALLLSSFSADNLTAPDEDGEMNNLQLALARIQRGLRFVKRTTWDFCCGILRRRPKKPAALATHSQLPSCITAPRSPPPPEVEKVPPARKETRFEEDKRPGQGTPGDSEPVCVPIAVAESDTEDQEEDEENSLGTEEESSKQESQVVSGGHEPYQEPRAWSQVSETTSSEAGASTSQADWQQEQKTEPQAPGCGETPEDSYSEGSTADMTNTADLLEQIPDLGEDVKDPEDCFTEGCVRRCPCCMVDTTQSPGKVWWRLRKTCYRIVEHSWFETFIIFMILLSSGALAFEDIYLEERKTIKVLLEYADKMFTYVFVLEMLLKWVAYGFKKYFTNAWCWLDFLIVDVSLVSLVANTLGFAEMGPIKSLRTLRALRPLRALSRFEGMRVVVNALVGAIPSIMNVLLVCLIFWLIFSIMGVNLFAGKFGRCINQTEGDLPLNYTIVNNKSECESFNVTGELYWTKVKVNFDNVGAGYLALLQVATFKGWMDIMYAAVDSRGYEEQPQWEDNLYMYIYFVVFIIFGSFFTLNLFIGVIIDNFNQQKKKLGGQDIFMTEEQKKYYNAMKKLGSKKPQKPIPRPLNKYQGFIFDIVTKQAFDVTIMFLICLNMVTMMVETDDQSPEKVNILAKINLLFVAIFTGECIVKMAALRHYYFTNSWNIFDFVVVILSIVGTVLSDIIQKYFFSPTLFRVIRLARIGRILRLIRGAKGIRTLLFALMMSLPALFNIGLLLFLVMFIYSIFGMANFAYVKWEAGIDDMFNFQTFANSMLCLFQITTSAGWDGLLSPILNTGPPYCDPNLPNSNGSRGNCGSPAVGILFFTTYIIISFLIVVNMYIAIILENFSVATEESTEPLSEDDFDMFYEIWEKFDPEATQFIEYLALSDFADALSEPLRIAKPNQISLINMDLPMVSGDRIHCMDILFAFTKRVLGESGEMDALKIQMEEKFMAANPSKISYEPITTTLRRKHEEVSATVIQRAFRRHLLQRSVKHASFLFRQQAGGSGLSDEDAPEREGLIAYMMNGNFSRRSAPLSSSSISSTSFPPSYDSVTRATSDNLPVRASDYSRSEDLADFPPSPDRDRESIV
- run-description: Whole cell voltage clamp tests, single isolated adult rat cardiac cells
- Assay type: cell-based
- condition: whole cell voltage clamp, isolated adult rat cardiac cells; read-out: EC50 (concentration required to produce a 50% reduction in sodium current)
Where a name gives a salt, the structure may show the parent alone.
measure-name: EC50 (µM)
Number only, in µM; omit the unit.

Exercise: Quick one: EC50 for Cl.O=C(Cc1cccc2sccc12)O[C@@H]1CCCC[C@H]1N1CCOCC1 (racemic) [Compound #16, monohydrochloride] ?
Key: 225

Exercise: Next molecule: O=C(COc1cccc2ccccc12)O[C@@H]1CCCC[C@H]1N1CCCC1 (relative stereo) [Compound #2, monohydrochloride]
Key: 50

Exercise: Another: Cl.O=C(Cc1csc2ccccc12)O[C@@H]1CCCC[C@H]1N1CCOCC1 (racemic) [Compound #6, monohydrochloride]
Key: 150

Exercise: What about O=C(Cc1cccc2ccccc12)O[C@@H]1CCCC[C@H]1N1CCOCC1 (relative stereo) [Compound #8, monohydrochloride] ?
Key: 80

* * *

- tested-target: cardiac sodium channel (Rattus norvegicus)
- run-description: Electrical stimulation of left ventricle in rats (iT, VFT; cardiac sodium channel blockade)
- Assay type: in vivo
- condition: infusion rate for 25% increase from control; anesthetized rats
Where a name gives a salt, the structure may show the parent alone.
measure-name: ED25 iT (threshold current for capture)
Note: state the figure and append the unit.

Please review the entries below; each comes with its answer.
O=C(Cc1ccccc1)O[C@@H]1CCCC[C@H]1N1CCOCC1 (relative stereo) [Compound #10, monohydrochloride]; 15 µmol/kg/min
O=C(Cc1cccc2ccccc12)O[C@@H]1CCCC[C@H]1N1CCOCC1 (relative stereo) [Compound #8, monohydrochloride]; 5 µmol/kg/min
Cl.O=C(O[C@@H]1CCCC[C@H]1N1CCOCC1)c1cccc2ccccc12 (racemic); 33 µmol/kg/min

Now look at this one.
Exercise: Look up ED25 iT (threshold current for capture): O=C(Cc1ccc2ccccc2c1)O[C@@H]1CCCC[C@H]1N1CCOCC1 (relative stereo) [Compound #9, monohydrochloride]
Key: 34 µmol/kg/min
